Target: UniProt Q9UKP6
Sequence (Q9UKP6 1-389): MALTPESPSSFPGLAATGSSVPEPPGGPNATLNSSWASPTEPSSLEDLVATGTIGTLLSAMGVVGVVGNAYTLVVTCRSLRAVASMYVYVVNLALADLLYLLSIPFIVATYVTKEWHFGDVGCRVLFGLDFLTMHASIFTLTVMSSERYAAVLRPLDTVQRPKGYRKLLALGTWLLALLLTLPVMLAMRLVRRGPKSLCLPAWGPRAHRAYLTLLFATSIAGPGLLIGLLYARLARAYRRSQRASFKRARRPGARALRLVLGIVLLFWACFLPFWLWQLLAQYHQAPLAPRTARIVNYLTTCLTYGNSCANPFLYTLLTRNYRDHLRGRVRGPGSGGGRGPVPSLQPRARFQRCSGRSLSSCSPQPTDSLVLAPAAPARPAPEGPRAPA
Assay: Human Radioligand Binding Assay ((^125I)-U-II binding to human skeletal muscle myoblasts)
pKi: −log10 of the molar value.
PROPERTY_MEASURED: pKi

> print(dat)
                                   molecule  property.measured  result.operator  number
1  COc1ccc([C@@H](CCCNS(=O)(=O)c2cccs2)N2C(=O)c3cccc(OCCCN(C)C)c3C2=O)cc1OC                pKi                <    6.52
2  COc1ccc([C@@H](CCCNC(=O)c2c(C)noc2C)N2C(=O)c3cccc(N4CCN([C@H](C)c5ccccc5)CC4)c3C2=O)cc1OC                pKi                =    7.00
3  COc1ccc([C@@H](CCCNC(=O)c2cc(C)[nH]c2C)N2C(=O)c3cccc(N4CCN([C@H](C)c5ccccc5)CC4)c3C2=O)cc1OC                pKi                =    6.92
4  COc1ccc(C(CCCCNC(=O)OC(C)(C)C)N2C(=O)c3cccc(N4CCN([C@H](C)c5ccccc5)CC4)c3C2=O)cc1OC (some centres unmarked)                pKi                <    5.00
5  COc1ccc(C(CCCNS(=O)(=O)c2ccc(-c3ccon3)s2)N2C(=O)c3cccc(N4CCN([C@H](C)c5ccccc5)CC4)c3C2=O)cc1OC (some centres unmarked)                pKi                =    6.96

---

molecular target: rat GPR14 (U-II receptor) (Rattus norvegicus); construct: expressed in transfected cells; assay: Rat UII Calcium Mobilization FLIPR Assay; assay type: cell-based; conditions: CHO, 5 min, 10 μM compound; agonist-induced Ca2+ mobilization (FLIPR), CHO cells with rat UII receptor; read-out: % I @ 10
Sequence (P49684 whole entry): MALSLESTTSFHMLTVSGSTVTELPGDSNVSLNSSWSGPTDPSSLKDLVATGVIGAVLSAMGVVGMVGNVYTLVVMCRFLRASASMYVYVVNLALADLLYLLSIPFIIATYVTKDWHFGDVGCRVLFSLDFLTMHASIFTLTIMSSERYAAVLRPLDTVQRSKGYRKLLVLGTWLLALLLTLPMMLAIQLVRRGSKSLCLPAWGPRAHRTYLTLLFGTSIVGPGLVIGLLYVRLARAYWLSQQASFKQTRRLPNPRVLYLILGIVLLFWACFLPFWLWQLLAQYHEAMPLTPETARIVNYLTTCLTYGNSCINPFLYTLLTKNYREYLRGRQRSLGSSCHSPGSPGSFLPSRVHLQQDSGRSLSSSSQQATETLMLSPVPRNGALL
Param threshold (80%) applies to inhibition at 10 µM; output criterion met when value >= threshold, criterion not met when value < threshold.

> print(dat)
                                    molecule           category
 1  O=C1c2cccc(N3CCN(Cc4ccccc4)CC3)c2C(=O)N1CCCn1ccnc1  criterion not met
 2  COc1cc(CN2C(=O)c3cccc(N4CCN(Cc5ccccc5)CC4)c3C2=O)cc(OC)c1OC  criterion not met
 3  COc1ccc(N2C(=O)c3cccc(N4CC5CCC(C4)N5Cc4ccccc4)c3C2=O)cc1OC  criterion not met
 4  COc1ccc(CN2C(=O)c3cccc(N4CCN(Cc5ccccc5Cl)CC4)c3C2=O)cc1OC  criterion not met
 5  Cc1c(CN2C(=O)c3cccc(N4CCN(Cc5ccccc5)CC4)c3C2=O)cnn1C  criterion not met
 6  COc1ccc(CN2C(=O)c3cccc(N4CCN(Cc5cccc(C)c5)CC4)c3C2=O)cc1OC  criterion not met
 7  C#CC(c1ccccc1)N1CCN(c2cccc3c2C(=O)N(Cc2ccc(OC)c(OC)c2)C3=O)CC1 (stereo not shown)  criterion not met
 8  COc1ccc(C(CN)N2C(=O)c3cccc(N4CCN([C@H](C)c5ccccc5)CC4)c3C2=O)cc1OC (stereo partly shown)      criterion met
 9  COc1ccc(CN2C(=O)c3cccc(N4C[C@@H](C)N(C(C)c5ccccc5)[C@@H](C)C4)c3C2=O)cc1OC (stereo partly shown)  criterion not met
10  COc1ccc(C(c2ccccc2)N2C(=O)c3cccc(N4CCN([C@H](C)c5ccccc5)CC4)c3C2=O)cc1OC (stereo partly shown)  criterion not met
11  COc1ccc(CN2C(=O)c3cccc(C4=CC5CCC(C4)N5Cc4ccccc4)c3C2=O)cc1OC (stereo not shown)  criterion not met
12  COc1ccc(C(CCCNS(=O)(=O)c2ccc(Cl)s2)N2C(=O)c3cccc(N4CCN([C@H](C)c5ccccc5)CC4)c3C2=O)cc1OC (stereo partly shown)  criterion not met
13  COc1ccc(C(CCCNS(C)(=O)=O)N2C(=O)c3cccc(N4CCN([C@H](C)c5ccccc5)CC4)c3C2=O)cc1OC (stereo partly shown)      criterion met
14  COc1ccc(C(CCCNC(=O)OC(C)(C)C)N2C(=O)c3cccc(N4CCN([C@H](C)c5ccccc5)CC4)c3C2=O)cc1OC (stereo partly shown)      criterion met
15  COc1ccc(CN2C(=O)c3cccc(N4CCN(Cc5ccccc5)CC4)c3C2=O)cc1OC      criterion met
16  COc1ccc(CN2C(=O)c3cccc(N4CCN([C@H](C)c5ccccc5)CC4)c3C2=O)cc1OC      criterion met
17  COc1ccc(CN2C(=O)c3cccc(N4CCN(C(C)(C)c5ccccc5)CC4)c3C2=O)cc1OC  criterion not met
18  O=C1c2cccc(N3CC4CCC(C3)N4Cc3ccccc3)c2C(=O)N1Cc1ccccn1  criterion not met
19  COc1ccc(CN2C(=O)c3cccc(C4=CCN(Cc5ccccc5)CC4)c3C2=O)cc1OC      criterion met
20  COc1ccc(CN2C(=O)c3cccc(N4CCN(CCc5ccccc5)CC4)c3C2=O)cc1OC      criterion met
21  COc1ccc(CN2C(=O)c3c(C=CS(C)(=O)=O)ccc(N4CCN([C@H](C)c5ccccc5)CC4)c3C2=O)cc1OC      criterion met
22  CCC(c1ccccc1)N1CCN(c2cccc3c2C(=O)N(Cc2ccc(OC)c(OC)c2)C3=O)CC1 (stereo not shown)      criterion met
23  COc1ccc(C(CCCCNC(=O)OC(C)(C)C)N2C(=O)c3cccc(N4CCN([C@H](C)c5ccccc5)CC4)c3C2=O)cc1OC (stereo partly shown)  criterion not met
